target: T1, human serum albumin (human, UniProt P02768 25-609); experiment: BLI (Octet HTX), VHH-His on Penta-His sensors, 100 nM albumin
T1 construct: also called HSA; human albumin
VALUE_TYPE: binding result

>  <BINDER>
HAS081 (VHH, anti-albumin VHH-His) VHH: QVQLVESGGGLVQAGGSLRLSCAASGRTFSSDAAGWFRQASGKEREFVAAISWSGNYTYSADSVKGRFTISSDNVKNTVYLQMNSLKPEDTAVYLCAAGNRYSDYRISLVTPSQYEYWGQGTQVTVSH

>  <DATA_VALUE>
binds

$$$$
>  <BINDER>
HAS091 (VHH, anti-albumin VHH-His) VHH: QVQLVESGGGLVQAGGSLRLSCAASGRTFGSDAAGWFRQASGKEREFVASISWSGGYTYYADSGTGRFTISSDNVKNTVYLQMNSLTPEDTAVYFCATGNRDSDYRISLVTPSQYEYWGQGTQVTVSH

>  <DATA_VALUE>
binds

$$$$
